# Assayed system: T1, human GITR (amino acids M1-V241, NCBI Accession #NP_004186.1) expressed on cells (human, UniProt Q9Y5U5 26-241)
# T1 sequence: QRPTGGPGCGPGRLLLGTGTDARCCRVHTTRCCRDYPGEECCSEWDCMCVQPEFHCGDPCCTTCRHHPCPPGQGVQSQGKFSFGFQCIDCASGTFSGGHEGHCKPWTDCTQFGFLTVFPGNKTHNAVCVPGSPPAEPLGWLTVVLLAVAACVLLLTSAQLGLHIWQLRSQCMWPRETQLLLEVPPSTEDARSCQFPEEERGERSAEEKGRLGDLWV
# Test name: cell-based or functional assay
# % Blocking, NF-kB-Luc, non-anchored per record follows

>  <Binder>
H1H14520P (antibody, human IgG1, V domains shown, human IgG1 (H1H)) VH: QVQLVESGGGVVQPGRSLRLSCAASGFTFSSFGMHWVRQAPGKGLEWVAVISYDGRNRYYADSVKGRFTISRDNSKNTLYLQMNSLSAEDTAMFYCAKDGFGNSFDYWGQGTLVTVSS VL: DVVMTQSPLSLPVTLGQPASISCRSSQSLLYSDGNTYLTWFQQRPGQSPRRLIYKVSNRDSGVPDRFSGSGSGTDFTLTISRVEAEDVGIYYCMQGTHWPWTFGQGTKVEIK

>  <% Blocking, NF-kB-Luc, non-anchored, %>
80

$$$$
>  <Binder>
H1H14491P (antibody, human IgG1, V domains shown, human IgG1 (H1H)) VH: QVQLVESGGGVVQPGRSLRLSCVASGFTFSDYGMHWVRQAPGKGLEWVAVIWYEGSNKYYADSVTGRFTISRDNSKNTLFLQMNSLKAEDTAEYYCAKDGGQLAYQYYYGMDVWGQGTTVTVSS VL: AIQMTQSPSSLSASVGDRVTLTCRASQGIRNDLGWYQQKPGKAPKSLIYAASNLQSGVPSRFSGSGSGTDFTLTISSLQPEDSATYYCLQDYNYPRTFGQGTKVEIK

>  <% Blocking, NF-kB-Luc, non-anchored, %>
90

$$$$
>  <Binder>
H4H14508P (antibody, human IgG4, V domains shown, human IgG4 (H4H)) VH: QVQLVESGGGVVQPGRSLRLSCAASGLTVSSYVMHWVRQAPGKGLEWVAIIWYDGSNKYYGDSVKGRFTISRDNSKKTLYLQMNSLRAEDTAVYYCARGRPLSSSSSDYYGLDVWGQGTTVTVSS VL: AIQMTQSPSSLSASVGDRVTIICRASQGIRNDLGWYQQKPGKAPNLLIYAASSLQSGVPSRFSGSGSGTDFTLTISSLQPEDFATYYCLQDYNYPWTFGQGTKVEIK

>  <% Blocking, NF-kB-Luc, non-anchored, %>
40

$$$$
>  <Binder>
H1H14493P (antibody, human IgG1, V domains shown, human IgG1 (H1H)) VH: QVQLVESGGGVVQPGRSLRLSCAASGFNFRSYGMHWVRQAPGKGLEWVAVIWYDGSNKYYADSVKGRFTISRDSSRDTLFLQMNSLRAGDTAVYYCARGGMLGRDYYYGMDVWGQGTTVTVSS VL: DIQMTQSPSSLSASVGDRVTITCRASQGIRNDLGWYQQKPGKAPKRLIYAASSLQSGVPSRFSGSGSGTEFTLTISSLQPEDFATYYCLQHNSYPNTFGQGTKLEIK

>  <% Blocking, NF-kB-Luc, non-anchored, %>
90

$$$$
